target: D(2) dopamine receptor (Rattus norvegicus); assay: Compound was for its ability to displace [3H]haloperidol binding to rat striatal Dopamine receptor D2
Sequence (P61169 whole entry): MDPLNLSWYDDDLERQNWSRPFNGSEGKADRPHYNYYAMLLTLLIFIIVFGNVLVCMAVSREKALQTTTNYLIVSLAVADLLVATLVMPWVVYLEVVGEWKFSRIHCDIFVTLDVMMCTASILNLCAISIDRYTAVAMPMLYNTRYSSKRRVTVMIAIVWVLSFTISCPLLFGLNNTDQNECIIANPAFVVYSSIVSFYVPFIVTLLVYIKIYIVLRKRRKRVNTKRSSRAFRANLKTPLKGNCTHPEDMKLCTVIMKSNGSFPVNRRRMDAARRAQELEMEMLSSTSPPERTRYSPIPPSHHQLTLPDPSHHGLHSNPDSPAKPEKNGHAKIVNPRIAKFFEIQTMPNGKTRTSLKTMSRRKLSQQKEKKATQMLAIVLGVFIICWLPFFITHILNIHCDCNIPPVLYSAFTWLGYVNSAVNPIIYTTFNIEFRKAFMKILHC
measurement_kind: IC50 (nM)
Give bare numbers, in nM.

COc1ccc([C@@H](O)[C@@H](C)N2CCN(c3cccccc3=O)CC2)cc1OC; 8550

Parameter requested: IC50. Apply to each item below.
1. COc1ccc(CCN2CCN(c3cccccc3=O)CC2)cc1OC
2. O=c1cccccc1N1CCN(CCc2ccc(O)c(O)c2)CC1
3. COc1ccc([C@@H](O)CN2CCN(c3cccccc3=O)CC2)cc1OC
4. COc1ccc([C@H](O)CN2CCN(c3cccccc3=O)CC2)cc1OC [CILADOPA]

Resp:
1. 880
2. 760
3. 16600
4. 2200

For every record below, what is its IC50?
1. COc1ccc([C@H](O)[C@@H](C)N2CCN(c3cccccc3=O)CC2)cc1OC (stereo in doubt; 14)
2. COc1ccc(C(O)CN2CCN(c3cccccc3=O)CC2)cc1OC.Cl (configuration not stated)

Resp:
1. 1050
2. 1500

---

tested on: Rattus norvegicus; test: Dopaminergic activity in rats rendered hypokinetic by the bilateral injection of 6-hydroxydopamine (6-OHDA) into the anterolateral hypothalamus at dose of 10 mg/kg sc; format: functional; conditions: route subcutaneous
measurement_kind: Activity
Give bare numbers.

These recorded examples may help you get a feel for the data.
COc1ccc(C(O)CN2CCN(c3cccccc3=O)CC2)cc1OC.Cl (centres undefined); 191
CC(C)C[C@H]1C(=O)N2CCC[C@H]2[C@]2(O)O[C@](NC(=O)[C@@H]3C=C4c5cccc6[nH]c(Br)c(c56)C[C@H]4N(C)C3)(C(C)C)C(=O)N12 [BROMOCRIPTINE]; 112

Can you give me Activity for all of these, one by one?
1. COc1ccc(CCN2CCN(c3cccccc3=O)CC2)cc1OC
2. COc1ccc([C@@H](O)[C@@H](C)N2CCN(c3cccccc3=O)CC2)cc1OC

Resp:
[101, 55]

---

test system: Rattus norvegicus; assay: Effective dose which lowered the serum prolactin levels after ip administration in rats; format: functional; settings: Rattus norvegicus, Serum, ip; read-out: ED50
measurement_kind: ED50 (mg/kg)
One number for each entry, in mg/kg.

Reference set, count: 3
COc1ccc([C@@H](O)CN2CCN(c3cccccc3=O)CC2)cc1OC; 2.7
COc1ccc([C@H](O)CN2CCN(c3cccccc3=O)CC2)cc1OC [CILADOPA]; 0.36
COc1ccc(C(O)CN2CCN(c3cccccc3=O)CC2)cc1OC.Cl (centres undefined); 0.48

// below: ED50 requested for another compound
Req: Item under review: CC(C)C[C@H]1C(=O)N2CCC[C@H]2[C@]2(O)O[C@](NC(=O)[C@@H]3C=C4c5cccc6[nH]c(Br)c(c56)C[C@H]4N(C)C3)(C(C)C)C(=O)N12 [BROMOCRIPTINE] . Reported ED50?
Resp: 0.24

FYI, the data here is from ChEMBL document CHEMBL1123392.
